Experiment: Three time point assay for plasma, brain and testes distribution after oral dosing
Format: in vivo, rat
Conditions: rat, oral dosing, time point 0.5 h
The entries below are paired with their reported Plasma concentration.
Hi! Could you send only the number? It should be in ng/mL, unit omitted.

Below: 3 compounds and their reported Plasma concentration.
Cc1ccc(-c2noc([C@H]3C[C@@H]3F)n2)cc1NC(=O)c1cnc2cc(OC(F)(F)F)ccn12 : 454
Cc1ccc(-c2noc(CC(O)C(F)F)n2)cc1NC(=O)c1cnc2ccccn12 (stereo not shown) : 1540
Cc1ccc(-c2noc([C@H]3C[C@@H]3F)n2)cc1NC(=O)c1cnc2cc(OC(C)C)ccn12 : 2640

// query Recorded Plasma concentration of COc1ccn2c(C(=O)Nc3cc(-c4noc(CC(O)C(F)F)n4)ccc3C)cnc2c1 (single isomer, unassigned) , please.
// result 712

* * *

Biological target: wtKIT (Homo sapiens, UniProt P10721)
Construct: 1888289AM in the reaction mixtures
Sequence (P10721 26-976): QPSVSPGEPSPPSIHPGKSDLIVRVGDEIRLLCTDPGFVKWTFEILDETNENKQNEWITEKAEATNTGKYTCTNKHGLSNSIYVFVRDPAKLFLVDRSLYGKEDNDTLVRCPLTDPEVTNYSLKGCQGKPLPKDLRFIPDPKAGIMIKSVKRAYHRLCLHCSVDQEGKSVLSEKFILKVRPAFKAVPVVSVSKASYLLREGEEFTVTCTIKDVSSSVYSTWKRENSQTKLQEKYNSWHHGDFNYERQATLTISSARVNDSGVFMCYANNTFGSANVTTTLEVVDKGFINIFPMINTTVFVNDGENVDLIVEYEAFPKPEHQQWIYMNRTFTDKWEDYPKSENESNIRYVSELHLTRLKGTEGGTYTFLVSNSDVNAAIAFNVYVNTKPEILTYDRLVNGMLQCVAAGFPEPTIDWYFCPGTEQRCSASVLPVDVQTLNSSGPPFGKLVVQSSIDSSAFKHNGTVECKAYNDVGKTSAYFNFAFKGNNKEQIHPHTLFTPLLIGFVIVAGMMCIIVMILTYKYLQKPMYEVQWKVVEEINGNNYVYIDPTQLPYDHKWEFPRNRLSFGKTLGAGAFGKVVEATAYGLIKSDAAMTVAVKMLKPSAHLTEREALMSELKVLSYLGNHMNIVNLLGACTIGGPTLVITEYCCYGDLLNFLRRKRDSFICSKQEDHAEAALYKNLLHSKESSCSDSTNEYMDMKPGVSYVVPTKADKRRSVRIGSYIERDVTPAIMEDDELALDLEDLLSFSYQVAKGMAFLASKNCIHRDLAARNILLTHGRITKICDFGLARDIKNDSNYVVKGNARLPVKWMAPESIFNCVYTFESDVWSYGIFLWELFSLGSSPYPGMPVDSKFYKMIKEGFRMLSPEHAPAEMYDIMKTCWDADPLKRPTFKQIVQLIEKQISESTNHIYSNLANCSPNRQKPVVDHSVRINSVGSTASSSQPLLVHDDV
Assay: Caliper biochemical assay, wtKIT
Conditions: Table 6, read-out: KIT Biochemical IC50 avg
OBSERVATION_TYPE: IC50

Below: 4 compounds and their reported IC50.
COC(=O)N1CC(c2nc(-c3ccc(C)c(NC(=O)c4cnn5ccc(C#N)cc45)c3)no2)C1 : 50 to 500 nM
Cc1ccc(-c2noc([C@@H]3CCN3S(=O)(=O)c3cn(C)cn3)n2)cc1NC(=O)c1cnc2ccccn12 : ≤ 50 nM
Cc1ccc(-c2noc([C@H]3C[C@@H]3F)n2)cc1NC(=O)c1cnc2ccc(N3CCCC3)cn12 : ≤ 50 nM
Cc1ccc(-c2noc(C3CC4(COCCO4)C3)n2)cc1NC(=O)c1cnc2ccccn12 (stereo not shown) : ≤ 50 nM

Turning to the following compound.
// query Recorded IC50 of Cc1nc(-c2ccc(C)c(NC(=O)c3cnn4ccccc34)c2)no1 , please.
// result ≤ 50 nM

* * *

Target: PDGFRα (Homo sapiens, UniProt P16234)
Construct: purchased Millipore 14-467 (lot 26321_ACTI)
Sequence (P16234 24-1089): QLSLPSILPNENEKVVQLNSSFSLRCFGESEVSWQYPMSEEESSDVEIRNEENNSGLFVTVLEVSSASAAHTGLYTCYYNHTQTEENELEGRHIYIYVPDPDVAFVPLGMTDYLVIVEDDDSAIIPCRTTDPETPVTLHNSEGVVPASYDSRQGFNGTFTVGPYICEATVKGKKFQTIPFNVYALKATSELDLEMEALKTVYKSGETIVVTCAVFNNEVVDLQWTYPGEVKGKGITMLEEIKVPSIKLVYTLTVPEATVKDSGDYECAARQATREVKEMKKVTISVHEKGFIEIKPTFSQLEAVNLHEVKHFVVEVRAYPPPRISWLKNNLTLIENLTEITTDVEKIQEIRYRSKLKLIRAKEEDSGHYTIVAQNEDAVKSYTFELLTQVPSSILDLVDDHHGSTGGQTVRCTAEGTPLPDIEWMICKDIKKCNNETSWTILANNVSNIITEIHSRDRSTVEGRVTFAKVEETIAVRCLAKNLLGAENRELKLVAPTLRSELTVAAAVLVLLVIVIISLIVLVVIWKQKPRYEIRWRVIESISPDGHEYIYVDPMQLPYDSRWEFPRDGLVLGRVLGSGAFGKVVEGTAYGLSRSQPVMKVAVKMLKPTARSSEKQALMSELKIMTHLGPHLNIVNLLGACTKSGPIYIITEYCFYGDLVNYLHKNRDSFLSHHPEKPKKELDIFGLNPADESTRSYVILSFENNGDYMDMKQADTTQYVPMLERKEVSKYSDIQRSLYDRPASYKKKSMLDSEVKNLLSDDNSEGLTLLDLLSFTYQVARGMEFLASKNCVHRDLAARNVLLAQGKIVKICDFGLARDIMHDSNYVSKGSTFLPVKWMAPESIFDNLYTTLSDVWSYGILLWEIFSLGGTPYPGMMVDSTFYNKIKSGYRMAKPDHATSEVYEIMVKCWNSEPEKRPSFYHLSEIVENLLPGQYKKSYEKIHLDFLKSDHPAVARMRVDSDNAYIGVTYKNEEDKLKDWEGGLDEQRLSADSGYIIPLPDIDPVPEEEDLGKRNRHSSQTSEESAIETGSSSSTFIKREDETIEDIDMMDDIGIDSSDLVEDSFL
Assay: HTRF biochemical assay, PDGFRα
Conditions: Table 4, read-out: PDFGRα Biochemical IC50 avg
OBSERVATION_TYPE: IC50

// query Lookup: IC50 / PDGFRα (Homo sapiens, UniProt P16234) / Cc1nc(-c2ccc(F)c(NC(=O)c3cnn4cc(-c5ccn(C)n5)ccc34)c2)no1 [Compound I-657]
// result 500 to 5000 nM

// query Field entry: CCOc1ccn2c(C(=O)Nc3cc(-c4noc([C@H]5C[C@@H]5F)n4)ccc3C)cnc2c1 [Compound I-93]
// result 50 to 500 nM

// query Field entry: Cc1nc(-c2ccc(C)c(NC(=O)c3cnc4cc(OCCCN(C(=O)OC(C)(C)C)C5COC5)ccn34)c2)no1 [Compound I-660]
// result 500 to 5000 nM

// query Field entry: COc1ccc2ncc(C(=O)Nc3cc(-c4noc(C[C@H](C)O)n4)ccc3C)n2c1 [Compound I-89]
// result 500 to 5000 nM

* * *

Molecular target: MDR1 (MDR1-MDCKII cells) (Homo sapiens, UniProt P08183)
Construct: host or cells: MDCKII (canine kidney) cells
Sequence (P08183 whole entry): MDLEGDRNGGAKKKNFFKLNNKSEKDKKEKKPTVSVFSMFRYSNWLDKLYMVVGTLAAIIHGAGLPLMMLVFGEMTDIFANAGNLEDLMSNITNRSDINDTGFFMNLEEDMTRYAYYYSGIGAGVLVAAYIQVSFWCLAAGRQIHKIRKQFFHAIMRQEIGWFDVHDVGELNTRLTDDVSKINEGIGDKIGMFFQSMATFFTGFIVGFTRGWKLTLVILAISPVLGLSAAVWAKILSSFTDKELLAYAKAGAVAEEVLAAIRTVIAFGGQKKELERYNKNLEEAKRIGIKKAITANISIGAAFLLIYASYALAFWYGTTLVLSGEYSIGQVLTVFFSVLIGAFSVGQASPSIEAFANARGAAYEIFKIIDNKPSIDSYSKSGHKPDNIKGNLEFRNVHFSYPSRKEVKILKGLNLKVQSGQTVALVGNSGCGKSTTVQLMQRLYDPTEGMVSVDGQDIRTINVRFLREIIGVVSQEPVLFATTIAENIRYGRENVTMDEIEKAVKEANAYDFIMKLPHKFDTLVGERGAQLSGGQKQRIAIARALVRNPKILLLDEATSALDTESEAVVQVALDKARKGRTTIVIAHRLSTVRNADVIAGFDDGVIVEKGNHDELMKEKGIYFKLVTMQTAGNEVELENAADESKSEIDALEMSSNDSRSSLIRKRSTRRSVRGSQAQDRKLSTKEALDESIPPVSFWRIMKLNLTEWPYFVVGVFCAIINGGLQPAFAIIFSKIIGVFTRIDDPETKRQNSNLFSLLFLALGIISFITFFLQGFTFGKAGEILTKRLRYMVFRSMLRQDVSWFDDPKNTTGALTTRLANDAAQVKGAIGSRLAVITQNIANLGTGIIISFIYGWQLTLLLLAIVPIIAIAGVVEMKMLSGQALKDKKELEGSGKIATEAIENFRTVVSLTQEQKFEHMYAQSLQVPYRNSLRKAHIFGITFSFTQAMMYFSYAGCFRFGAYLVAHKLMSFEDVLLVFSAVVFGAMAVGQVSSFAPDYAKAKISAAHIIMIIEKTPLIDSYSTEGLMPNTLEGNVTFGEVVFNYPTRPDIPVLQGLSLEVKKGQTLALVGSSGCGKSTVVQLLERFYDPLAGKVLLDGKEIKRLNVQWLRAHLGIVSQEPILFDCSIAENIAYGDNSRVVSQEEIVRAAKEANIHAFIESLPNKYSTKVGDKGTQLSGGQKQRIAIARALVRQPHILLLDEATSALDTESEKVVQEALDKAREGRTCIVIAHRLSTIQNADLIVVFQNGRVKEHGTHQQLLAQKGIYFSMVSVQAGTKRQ
Assay: Permeability in MDR1-MDCKII cells
Format: in vitro ADME
Settings: MDCKII-MDR1, apical to basolateral
The entries below are paired with their reported MDCKII-MDR1: Papp A-B.

Cc1ccc(-c2noc(C(C)O)n2)cc1NC(=O)c1cnc2ccccn12 (racemic) [Compound I-364] : 16 10^−6 cm/s
COCCOCc1ccn2c(C(=O)Nc3cc(-c4noc([C@H]5C[C@@H]5F)n4)ccc3C)cnc2c1 [Compound I-84] : 12.1 10^−6 cm/s
Cc1ccc(-c2noc(C3(C)CC(F)(F)CN3)n2)cc1NC(=O)c1cnc2ccccn12 (racemic) [Compound I-328] : 20.8 10^−6 cm/s

Turning to the following molecule.
// query Lookup: MDCKII-MDR1: Papp A-B / MDR1 (MDR1-MDCKII cells) (Homo sapiens, UniProt P08183) / CCCS(=O)(=O)N1CC(c2nc(-c3ccc(Cl)c(NC(=O)c4cnc5ccccn45)c3)no2)C1 [Compound I-220]
// result 16.3 10^−6 cm/s

* * *

The entries below are paired with their reported pIC50.
Molecular target: wtKIT (Homo sapiens)
Construct: 1888289AM in the reaction mixtures
Assay: HTRF biochemical assay, wtKIT (phosphorylation of a peptide substrate)
Details: Table 4
pIC50: −log10 of the molar value.

Below: 5 compounds and their reported pIC50.
Cc1ccc(-c2noc([C@H]3C[C@@H]3F)n2)cc1NC(=O)c1cnc2c(F)c(COCCO)ccn12 [Compound I-472] : 6.30 to 7.30
Cc1ccc(-c2noc([C@H]3CC(=O)CN3)n2)cc1NC(=O)c1cnc2ccccn12 [Compound I-223] : 6.30 to 7.30
Cc1ccc(-c2ncon2)cc1NC(=O)c1cnc2cc(N3CCOCC3)ccn12 [Compound I-717] : ≥ 7.30
Cc1ccc(-c2noc(C[C@H](O)C(F)F)n2)cc1NC(=O)c1cnc2cc(COCc3c[nH]nn3)ccn12 [Compound I-575] : ≥ 7.30
Cc1ccc(-c2noc(N3CC(F)(F)C3)n2)cc1NC(=O)c1cnc2cc(Cl)ccn12 [Compound I-601] : ≥ 7.30

// query Recorded pIC50 of Cc1ccc(-c2noc([C@H]3C[C@@H]3F)n2)cc1NC(=O)c1cnc2cc(C/C=C/OCCO)ccn12 [Compound I-506] , please.
// result ≥ 7.30

// query Field entry: Cc1nc(-c2ccc(C)c(NC(=O)c3cnc4ccc(-c5ccn(C)n5)cn34)c2)no1 [Compound I-532]
// result ≥ 7.30

// query Field entry: COC(=O)N1CC(c2nc(-c3ccc(C)c(NC(=O)c4cnc5cc(OC[C@@H](C)O)ccn45)c3)no2)C1 [Compound I-263]
// result ≥ 7.30

// query Field entry: Cc1ccc(-c2noc(C[C@H](O)C(F)F)n2)cc1NC(=O)c1cnc2cc(OCCCCO)ccn12 [Compound I-568]
// result ≥ 7.30

// query Field entry: Cc1ccc(-c2noc([C@H]3C[C@@H]3F)n2)cc1NC(=O)c1cnc2cc(COCC3(O)CC3)ccn12 [Compound I-622]
// result ≥ 7.30

* * *

Biological target: wtKIT (Homo sapiens, UniProt P10721)
Construct: 1888289AM in the reaction mixtures
Test: HTRF biochemical assay, wtKIT (phosphorylation of a peptide substrate)
Conditions: Table 4
The entries below are paired with their reported IC50.

Below: 10 compounds and their reported IC50.
Cc1ccc(-c2noc(CCC(C)(C)O)n2)cc1NC(=O)c1cnn2ccccc12 [Compound I-563] : 50 to 500 nM
Cc1ccc(-c2noc(C[C@H](O)C(F)F)n2)cc1NC(=O)c1cnc2cc(OCC(C)O)ccn12 (stereo partly drawn) [Compound I-571] : ≤ 50 nM
COCc1ccn2c(C(=O)Nc3cc(-c4ncon4)ccc3C)cnc2c1 [Compound I-677] : 50 to 500 nM
Cc1ccc(-c2noc([C@H]3C[C@@H]3F)n2)cc1NC(=O)c1cnn2cc(F)ccc12 [Compound I-486] : ≤ 50 nM
Cc1ccc(-c2noc(C3CC3F)n2)cc1NC(=O)c1cnc2cc(C(C)OCCO)ccn12 (single isomer, unassigned) [Compound I-450] : ≤ 50 nM
Cc1ccc(-c2noc(C[C@H](C)O)n2)cc1NC(=O)c1cnn2ccccc12 [Compound I-80] : 50 to 500 nM
Cc1ccc(-c2noc(N3CCC(F)(F)CC3)n2)cc1NC(=O)c1cnc2ccccn12 [Compound I-214] : 50 to 500 nM
COC(=O)CS(=O)(=O)N1CC(c2nc(-c3ccc(C)c(NC(=O)c4cnc5ccccn45)c3)no2)C1 [Compound I-236] : 50 to 500 nM
Cc1ccn2c(C(=O)Nc3cc(-c4noc(-c5nc(C)oc5C)n4)ccc3C)cnc2c1 [Compound I-551] : ≤ 50 nM
Cc1ccc(-c2noc(C[C@H](O)C(F)F)n2)cc1NC(=O)c1cnc2cc(-c3ccn(C)n3)ccn12 [Compound I-555] : ≤ 50 nM

// query Recorded IC50 of Cc1ccc(-c2noc([C@H]3C[C@@H]3F)n2)cc1NC(=O)c1cnc2cc(OCCCN3CCCC3)ccn12 [Compound I-630] , please.
// result ≤ 50 nM

// query Field entry: Cc1ccn2c(C(=O)Nc3cc(-c4noc(-c5cccnn5)n4)ccc3C)cnc2c1 [Compound I-550]
// result 50 to 500 nM

* * *

Biological target: BCRP (BCRP-MDCKII monolayer) (Homo sapiens, UniProt Q9UNQ0)
Construct: host or cells: MDCKII (canine kidney) cells
Sequence (Q9UNQ0 1-655): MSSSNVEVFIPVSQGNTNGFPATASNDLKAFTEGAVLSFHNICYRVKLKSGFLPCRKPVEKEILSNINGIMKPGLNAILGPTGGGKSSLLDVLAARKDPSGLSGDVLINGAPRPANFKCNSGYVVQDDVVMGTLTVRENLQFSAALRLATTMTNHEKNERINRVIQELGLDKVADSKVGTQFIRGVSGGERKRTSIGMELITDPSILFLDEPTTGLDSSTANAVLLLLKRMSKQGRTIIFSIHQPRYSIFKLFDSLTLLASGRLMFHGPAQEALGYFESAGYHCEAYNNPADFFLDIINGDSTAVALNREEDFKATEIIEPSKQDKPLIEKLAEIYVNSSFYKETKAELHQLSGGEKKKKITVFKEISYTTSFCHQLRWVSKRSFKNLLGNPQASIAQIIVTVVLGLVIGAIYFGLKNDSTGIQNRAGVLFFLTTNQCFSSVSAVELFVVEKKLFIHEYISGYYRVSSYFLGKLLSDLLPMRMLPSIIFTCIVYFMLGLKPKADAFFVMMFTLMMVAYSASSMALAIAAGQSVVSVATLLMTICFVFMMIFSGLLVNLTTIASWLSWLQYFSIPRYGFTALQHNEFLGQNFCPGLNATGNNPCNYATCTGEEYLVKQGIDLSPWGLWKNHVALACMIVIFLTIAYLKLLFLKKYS
Test: MDCKII-BCRP bidirectional transport assay
Assay type: in vitro ADME
Details: apical to basolateral
The entries below are paired with their reported MDCK-BCRP: Papp A-B.

Below: 6 compounds and their reported MDCK-BCRP: Papp A-B.
CSCC1(c2nc(-c3ccc(C)c(NC(=O)c4cnc5ccccn45)c3)no2)CC(F)(F)C1 : 7.97 10^−6 cm/s
Cc1ccc(-c2noc(CC(=O)OCc3ccccc3)n2)cc1NC(=O)c1cnc2ccccn12 : 1.38 10^−6 cm/s
Cc1ccc(-c2noc(C3CN(C(N)=O)C3)n2)cc1NC(=O)c1cnc2ccccn12 : 0.31 10^−6 cm/s
Cc1ccc(-c2noc(CC3CCCOC3)n2)cc1NC(=O)c1cnc2ccccn12 (racemic) : 8.71 10^−6 cm/s
Cc1ccc(-c2noc(C3CCCN3)n2)cc1NC(=O)c1cnc2ccccn12 (racemic) : 2.13 10^−6 cm/s
Cc1ccc(-c2noc([C@H]3C[C@@H]3F)n2)cc1NC(=O)c1cnc2cc(Nc3c(C)cccc3C)ccn12 : 0.02 10^−6 cm/s

// query Recorded MDCK-BCRP: Papp A-B of Cc1ccc(-c2noc([C@H]3C[C@@H]3F)n2)cc1NC(=O)c1cnc2ccc(C#N)cn12 , please.
// result 0.59 10^−6 cm/s

// query Field entry: Cc1ccc(-c2noc(C3COC3)n2)cc1NC(=O)c1cnc2ccccn12
// result 10.4 10^−6 cm/s

// query Field entry: Cc1ccc(-c2noc(C3(C)CC(F)(F)C3)n2)cc1NC(=O)c1cnc2ccccn12
// result 14.3 10^−6 cm/s

// query Field entry: COC1CC(c2nc(-c3ccc(C)c(NC(=O)c4cnc5ccccn45)c3)no2)C1 (stereo not drawn)
// result 8.86 10^−6 cm/s

Provenance of the data: patent US20240254119A1
